Documented Inhibition of Factor XI protein relative to the PBS control across a set of substances
# System: Factor XI protein
# Test summary: Cynomolgus monkeys: plasma Factor XI protein ELISA (Example 29)
# Assay type: in vivo
# Condition info: escalating doses 5, 10, 25 mg/kg s.c., day 29
# Protocol: Groups, each consisting of two male and three female monkeys, were injected subcutaneously with ISIS 416838, ISIS 416850, ISIS 416858, ISIS 416864, or ISIS 417002 in escalating doses. […] Body weights were measured weekly. […] The results are presented in Table 122, expressed as percentage reduction relative to that of the PBS control.
In the oligonucleotide strings, read from the 5' end, every base follows the letter of its sugar. An asterisk marks phosphorothioate; unmarked linkages are phosphodiester. Other units and linkages are bracketed, terminal groups are in braces. A string of capitals states the bases alone. e = 2'-O-(2-methoxyethyl) (MOE); [5mC] = 5-methylcytosine; d = 2'-deoxy (DNA)
Metric: Inhibition of Factor XI protein relative to the PBS control (%)

substance="ISIS 416858: gapmer of Table 8 (antisense eA*e[5mC]*eG*eG*e[5mC]*dA*dT*dT*dG*dG*dT*dG*d[5mC]*dA*d[5mC]*eA*eG*eT*eT*eT)" value=28
substance="ISIS 416850: gapmer of Table 8 (antisense eT*eG*e[5mC]*eA*e[5mC]*dA*dG*dT*dT*dT*d[5mC]*dT*dG*dG*d[5mC]*eA*eG*eG*e[5mC]*e[5mC])" value=15
substance="ISIS 416838: gapmer of Table 6 (antisense eG*e[5mC]*eA*eA*e[5mC]*d[5mC]*dG*dG*dG*dA*dT*dG*dA*dT*dG*eA*eG*eT*eG*e[5mC])" value=8
substance="ISIS 417002: gapmer of Table 8 (antisense eG*eG*dT*dG*d[5mC]*dA*d[5mC]*dA*dG*dT*dT*dT*d[5mC]*dT*dG*eG*e[5mC]*eA*eG*eG)" value=8
substance="ISIS 416864: gapmer of Table 8 (antisense eG*eG*e[5mC]*eA*eG*d[5mC]*dG*dG*dA*d[5mC]*dG*dG*d[5mC]*dA*dT*eT*eG*eG*eT*eG)" value=10
